For each entry below, report its pIC50 value.
Target: KRAS G12C-BRAF complex (Homo sapiens (Human), UniProt P01116+P62937, G12C)
Sequence (P01116-2 other isoform, or with tags, fused parts or gaps G12C): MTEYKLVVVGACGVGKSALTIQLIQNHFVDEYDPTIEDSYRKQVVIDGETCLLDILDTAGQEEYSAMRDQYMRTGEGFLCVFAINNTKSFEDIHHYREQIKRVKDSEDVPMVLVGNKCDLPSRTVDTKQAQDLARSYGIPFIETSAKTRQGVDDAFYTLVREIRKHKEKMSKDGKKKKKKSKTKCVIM
Sequence (P62937 whole entry): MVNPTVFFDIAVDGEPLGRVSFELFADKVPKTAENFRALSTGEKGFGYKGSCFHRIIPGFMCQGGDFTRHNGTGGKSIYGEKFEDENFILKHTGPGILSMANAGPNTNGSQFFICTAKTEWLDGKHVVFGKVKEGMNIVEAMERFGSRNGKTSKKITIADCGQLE
Assay: KRAS-BRAF with CYPA (500 nM) interaction assay (TR-FRET), G12C
Convention used: pIC50 is expressed as -log10 of the molar concentration.

pIC50 reported for this compound CO[C@@H](C)c1ncc(N2CCN(CC(F)(F)F)CC2)cc1-c1c2c3cc(ccc3n1CC(F)(F)F)-c1csc(n1)C[C@H](NC(=O)[C@H](C(C)C)N(C)C(=O)N1CCOCC1)C(=O)N1CCC[C@H](N1)C(=O)OCC(C)(C)C2 (atropisomer, axis not shown; (M)) : 7.64

pIC50 reported for this compound CO[C@@H](C)c1ncc(N2CCN(CC(F)(F)F)CC2)cc1-c1c2c3cc(c(F)cc3n1CC(F)(F)F)-c1csc(n1)C[C@H](NC(=O)[C@H](C(C)C)N(C)C(=O)N1CC(N(C)C)C1)C(=O)N1CCC[C@H](N1)C(=O)OCC(C)(C)C2 (atropisomer, axis not shown; (M)) : 7.54

pIC50 reported for this compound CO[C@@H](C)c1ncc(N2CCOCC2)cc1-c1c2c3cc(c(F)cc3n1CC(F)(F)F)-c1csc(n1)C[C@H](NC(=O)[C@H](C(C)C)N(C)C(=O)N1CCOCC1)C(=O)N1CCC[C@H](N1)C(=O)OCC(C)(C)C2 (atropisomer, axis not shown; (M)) : 7.62

pIC50 reported for this compound CCn1c(-c2cc(N3CCN(C)CC3)cnc2[C@H](C)OC)c2c3cc(c(F)cc31)-c1csc(n1)C[C@H](NC(=O)[C@H](C(C)C)N(C)C(=O)N1CCOCC1)C(=O)N1CCC[C@H](N1)C(=O)OCC(C)(C)C2 (atropisomer, axis not shown; (M)) : 7.21

====

Tested on: AGS cells (KRAS G12D)
Assay: Cell viability assay (Cell Counting Kit-8), KRAS G12D
Format: cell-based
Details: Homo sapiens, 72 hrs
Property: IC50 (µM)
Report as a plain number; the unit µM is understood.

IC50 reported for this molecule CCn1c(-c2cc(N3CCN(CC(F)(F)F)CC3)cnc2[C@H](C)OC)c2c3cc(c(F)cc31)-c1csc(n1)C[C@H](NC(=O)[C@H](C(C)C)N(C)C(=O)N1CCOCC1)C(=O)N1CCC[C@H](N1)C(=O)OCC(C)(C)C2 (atropisomer, axis not shown; (M)) : 0.091

IC50 reported for this molecule CO[C@@H](C)c1ncc(N2CCN(CC(F)(F)F)CC2)cc1-c1c2c3cc(c(F)cc3n1CC(F)(F)F)-c1csc(n1)C[C@H](NC(=O)[C@H](C(C)C)N(C)C(=O)N1CC(N(C)C)C1)C(=O)N1CCC[C@H](N1)C(=O)OCC(C)(C)C2 (atropisomer, axis not shown; (M)) : 0.038

IC50 reported for this molecule CO[C@@H](C)c1ncc(N2CCOCC2)cc1-c1c2c3cc(c(F)cc3n1CC(F)(F)F)-c1csc(n1)C[C@H](NC(=O)[C@H](C(C)C)N(C)C(=O)N1CCOCC1)C(=O)N1CCC[C@H](N1)C(=O)OCC(C)(C)C2 (atropisomer, axis not shown; (M)) : 0.006

IC50 reported for this molecule CO[C@@H](C)c1ncc(N2CCOCC2)cc1-c1c2c3cc(c(F)cc3n1CC(F)(F)F)-c1csc(n1)C[C@H](NC(=O)[C@H](C(C)C)N(C)C(=O)N1CC(N(C)C)C1)C(=O)N1CCC[C@H](N1)C(=O)OCC(C)(C)C2 (atropisomer, axis not shown; (M)) : 0.017

IC50 reported for this molecule CO[C@@H](C)c1ncc(N2CCN(C)CC2)cc1-c1c2c3cc(ccc3n1CC(F)(F)F)-c1csc(n1)C[C@H](NC(=O)[C@H](C(C)C)N(C)C(=O)N1CCOCC1)C(=O)N1CCC[C@H](N1)C(=O)OCC(C)(C)C2 (atropisomer, axis not shown; (M)) : 0.015

IC50 reported for this molecule CCn1c(-c2cc(N3CCOCC3)cnc2[C@H](C)OC)c2c3cc(c(F)cc31)-c1csc(n1)C[C@H](NC(=O)[C@H](C(C)C)N1CCN(C)C1=O)C(=O)N1CCC[C@H](N1)C(=O)OCC(C)(C)C2 (atropisomer, axis not shown; (M)) : 0.057

IC50 reported for this molecule CO[C@@H](C)c1ncc(N2CCN(C)CC2)cc1-c1c2c3c(F)c(ccc3n1CC(F)(F)F)-c1csc(n1)C[C@H](NC(=O)[C@H](C(C)C)N(C)C(=O)N1CC(N(C)C)C1)C(=O)N1CCC[C@H](N1)C(=O)OCC(C)(C)C2 (atropisomer, axis not shown; (M)) : 0.016

IC50 reported for this molecule CO[C@@H](C)c1ncc(N2CCN(CC(F)(F)F)CC2)cc1-c1c2c3cc(ccc3n1CC(F)(F)F)-c1csc(n1)C[C@H](NC(=O)[C@H](C(C)C)N(C)C(=O)N1CCOCC1)C(=O)N1CCC[C@H](N1)C(=O)OCC(C)(C)C2 (atropisomer, axis not shown; (M)) : 0.02
